Test protocol: Cytotoxicity against african green monkey Vero cells assessed as cell viability at 40 ug/mL after 7 days by trypan blue exclusion method
Format: cell-based
Applied conditions: chlorocebus sabaeus, read-out: Activity
Kindly supply the reported viability at 168 h, 40 ug/mL values for the records listed here.
Give a bare numeral; the unit % is implied.

What measured viability at 168 h, 40 ug/mL goes with C=C(CC[C@@H](COS(=O)(=O)[O-])[C@H]1CC[C@H]2[C@@H]3CC[C@@H]4[C@H](O)[C@H](OS(=O)(=O)[O-])CC[C@]4(C)[C@H]3[C@@H](O)C[C@]12C)C(C)C.[Na+].[Na+] ?
100

Which measured viability at 168 h, 40 ug/mL value corresponds to CC(C)/C=C/[C@@H](COS(=O)(=O)[O-])[C@H]1CC[C@H]2[C@@H]3CC[C@@H]4[C@H](O)[C@H](OS(=O)(=O)[O-])CC[C@]4(C)[C@H]3[C@@H](O)C[C@]12C.[Na+].[Na+] ?
100

Entry CC(C)C/C=C/[C@@H](COS(=O)(=O)[O-])[C@H]1CC[C@H]2[C@@H]3CC[C@@H]4[C@H](O)[C@H](OS(=O)(=O)[O-])CC[C@]4(C)[C@H]3[C@@H](O)C[C@]12C.[Na+].[Na+] has what viability at 168 h, 40 ug/mL?
100

Sample CC(C)CCC[C@@H](COS(=O)(=O)[O-])[C@H]1CC[C@H]2[C@@H]3CC[C@@H]4[C@H](O)[C@H](OS(=O)(=O)[O-])CC[C@]4(C)[C@H]3[C@@H](O)C[C@]12C.[Na+].[Na+] — what was its viability at 168 h, 40 ug/mL?
100

====

System: Human alphaherpesvirus 1
Test protocol: Antiviral activity against HSV1 F infected african green monkey Vero cells assessed as reduction of virus plaque formation at 20 ug/mL
Assay type: functional
Set-up: scale not given: the % may be the effect or the level left
Measured parameter: Activity (%)
State just the number; it will be interpreted in %.

Can you look up Activity on Human alphaherpesvirus 1 for CC(C)C/C=C/[C@@H](COS(=O)(=O)[O-])[C@H]1CC[C@H]2[C@@H]3CC[C@@H]4[C@H](O)[C@H](OS(=O)(=O)[O-])CC[C@]4(C)[C@H]3[C@@H](O)C[C@]12C.[Na+].[Na+] ?
14

API: value(readout= Activity, system= Human alphaherpesvirus 1, query= CC(C)CCC[C@@H](COS(=O)(=O)[O-])[C@H]1CC[C@H]2[C@@H]3CC[C@@H]4[C@H](O)[C@H](OS(=O)(=O)[O-])CC[C@]4(C)[C@H]3[C@@H](O)C[C@]12C.[Na+].[Na+] )
8

Test system Human alphaherpesvirus 1; read-out Activity; what value for C=C(CC[C@@H](COS(=O)(=O)[O-])[C@H]1CC[C@H]2[C@@H]3CC[C@@H]4[C@H](O)[C@H](OS(=O)(=O)[O-])CC[C@]4(C)[C@H]3[C@@H](O)C[C@]12C)C(C)C.[Na+].[Na+] ?
20

Can you look up Activity on Human alphaherpesvirus 1 for CC(C)/C=C/[C@@H](COS(=O)(=O)[O-])[C@H]1CC[C@H]2[C@@H]3CC[C@@H]4[C@H](O)[C@H](OS(=O)(=O)[O-])CC[C@]4(C)[C@H]3[C@@H](O)C[C@]12C.[Na+].[Na+] ?
12

====

System: Human alphaherpesvirus 1
Test protocol: Antiviral activity against HSV1 F infected african green monkey Vero cells assessed as reduction of virus plaque formation at 40 ug/mL
Format: functional
Design: scale not given: the % may be the effect or the level left
Measured parameter: Activity (%)
Output spec: scalar in %, unitless text.

// query Activity value for entry C=C(CC[C@@H](COS(=O)(=O)[O-])[C@H]1CC[C@H]2[C@@H]3CC[C@@H]4[C@H](O)[C@H](OS(=O)(=O)[O-])CC[C@]4(C)[C@H]3[C@@H](O)C[C@]12C)C(C)C.[Na+].[Na+]
36

I am curious: what Activity value has been reported for CC(C)/C=C/[C@@H](COS(=O)(=O)[O-])[C@H]1CC[C@H]2[C@@H]3CC[C@@H]4[C@H](O)[C@H](OS(=O)(=O)[O-])CC[C@]4(C)[C@H]3[C@@H](O)C[C@]12C.[Na+].[Na+] ?
36

I'd like to know its Activity. The compound in question is CC(C)CCC[C@@H](COS(=O)(=O)[O-])[C@H]1CC[C@H]2[C@@H]3CC[C@@H]4[C@H](O)[C@H](OS(=O)(=O)[O-])CC[C@]4(C)[C@H]3[C@@H](O)C[C@]12C.[Na+].[Na+]
35

Please give the measured Activity for this compound: CC(C)C/C=C/[C@@H](COS(=O)(=O)[O-])[C@H]1CC[C@H]2[C@@H]3CC[C@@H]4[C@H](O)[C@H](OS(=O)(=O)[O-])CC[C@]4(C)[C@H]3[C@@H](O)C[C@]12C.[Na+].[Na+]
39

====

Tested on: Human alphaherpesvirus 1
Test protocol: Antiviral activity against HSV1 F infected african green monkey Vero cells assessed as reduction of virus plaque formation at 10 ug/mL
Format: functional
Set-up: scale not given: the % may be the effect or the level left
Would you kindly list Activity for each of these compounds?
Output spec: scalar in %, unitless text.

Request - read-out Activity | tested on Human alphaherpesvirus 1 | compound CC(C)CCC[C@@H](COS(=O)(=O)[O-])[C@H]1CC[C@H]2[C@@H]3CC[C@@H]4[C@H](O)[C@H](OS(=O)(=O)[O-])CC[C@]4(C)[C@H]3[C@@H](O)C[C@]12C.[Na+].[Na+]
7

Recorded Activity for CC(C)C/C=C/[C@@H](COS(=O)(=O)[O-])[C@H]1CC[C@H]2[C@@H]3CC[C@@H]4[C@H](O)[C@H](OS(=O)(=O)[O-])CC[C@]4(C)[C@H]3[C@@H](O)C[C@]12C.[Na+].[Na+] with Human alphaherpesvirus 1, please?
0

Could you share what Activity was measured for C=C(CC[C@@H](COS(=O)(=O)[O-])[C@H]1CC[C@H]2[C@@H]3CC[C@@H]4[C@H](O)[C@H](OS(=O)(=O)[O-])CC[C@]4(C)[C@H]3[C@@H](O)C[C@]12C)C(C)C.[Na+].[Na+] , tested on Human alphaherpesvirus 1?
11

Record CC(C)/C=C/[C@@H](COS(=O)(=O)[O-])[C@H]1CC[C@H]2[C@@H]3CC[C@@H]4[C@H](O)[C@H](OS(=O)(=O)[O-])CC[C@]4(C)[C@H]3[C@@H](O)C[C@]12C.[Na+].[Na+] : what is its Activity with Human alphaherpesvirus 1?
0

All figures here come from ChEMBL document CHEMBL1158231.
